Provide the recorded inhibition in vivo at 0.01 % in diet for the entries that follow.
System: KK mice which developed diabetes
Assay: Hypoglycemic action in diabetic KK mice
Type: in vivo
Details: Mus musculus, po, 72 h, powdery food containing 0.01% test compound for three days, plasma glucose vs control, read-out: Blood sugar lowering rate (%)
Structures can show the parent of a compound that is named as a salt.
Answers are plain numbers, in %.

> print(dat)
                                   compound  reported.result
1  Cn1c(COc2ccc(CC3SC(=O)NC3=O)cc2)nc2ccc(Oc3ccc(-n4ccnc4)cc3)cc21 (stereo not drawn) [Example 19-2, dihydrochloride]             66.8

Dear colleague, could you send me inhibition in vivo at 0.01 % in diet for each of the items below? Thanks.
1. Cn1c(COc2ccc(CC3SC(=O)NC3=O)cc2)nc2ccc(Sc3ccccn3)cc21 (stereo not drawn) [Example 13-2b, dihydrochloride]
2. Cc1cc(Oc2ccc3nc(COc4ccc(CC5SC(=O)NC5=O)cc4)n(C)c3c2)cc(C)c1O (stereo not drawn)

Solution:
1: 68.1; 2: 67.5

----------
So I've got a bunch of compounds here, and I need their IC50 values.
Biological target: 5-lipoxygenase (Cavia porcellus, UniProt A0A286X958)
Sequence (A0A286X958 1-674): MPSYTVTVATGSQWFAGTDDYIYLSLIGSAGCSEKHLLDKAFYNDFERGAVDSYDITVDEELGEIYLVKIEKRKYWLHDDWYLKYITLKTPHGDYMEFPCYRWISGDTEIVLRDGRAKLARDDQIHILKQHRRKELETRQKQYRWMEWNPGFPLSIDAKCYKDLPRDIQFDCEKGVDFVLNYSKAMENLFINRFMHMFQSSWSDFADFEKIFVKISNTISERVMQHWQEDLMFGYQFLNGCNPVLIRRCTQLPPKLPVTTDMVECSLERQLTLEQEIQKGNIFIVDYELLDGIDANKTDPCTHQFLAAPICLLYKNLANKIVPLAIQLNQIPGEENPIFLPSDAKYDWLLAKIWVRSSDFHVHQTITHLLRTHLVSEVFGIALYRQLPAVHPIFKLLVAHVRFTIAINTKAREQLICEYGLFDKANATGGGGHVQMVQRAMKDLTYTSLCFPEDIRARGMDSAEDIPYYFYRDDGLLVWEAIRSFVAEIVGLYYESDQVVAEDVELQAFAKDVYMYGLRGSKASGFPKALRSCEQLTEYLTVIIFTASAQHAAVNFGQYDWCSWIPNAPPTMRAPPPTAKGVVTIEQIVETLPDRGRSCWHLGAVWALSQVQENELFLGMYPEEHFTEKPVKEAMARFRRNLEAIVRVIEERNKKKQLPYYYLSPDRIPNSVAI
Assay: 5-Lipoxygenase inhibitory action (5-HETE formation, guinea pig polymorphonuclear leukocyte enzyme)
Assay type: biochemical
Conditions: 25° C. 5 minutes, 5-HETE by HPLC, read-out: IC50 (50% inhibition concentration against 5-lipoxygenase) (converted)
From the text: 5-Lipoxygenase Inhibitory Action […]
One number for each entry, in nM.

In the examples that follow, each entry is paired with its recorded IC50.
> print(dat)
                                   compound  reported.result
1  Cc1cc(Oc2ccc3nc(COc4ccc(CC5SC(=O)NC5=O)cc4)n(C)c3c2)cc(C)c1O (stereo not shown) [Example 4-2a]              397
2  Cc1cc(Oc2ccc3nc(COc4ccc(CC5SC(=O)NC5=O)cc4)n(C)c3n2)c(C)c(C)c1O (stereo not shown) [Example 1-2a]             1140
3  Cc1cc(Oc2ccc3nc(COc4ccc(CC5SC(=O)NC5=O)cc4)n(C)c3c2)c(Cl)c(C)c1O.Cl (stereo not shown) [Example 5b, hydrochloride]              923

Next compound, IC50 to be filled in.
// recorded IC50 for Cc1cc(Oc2ccc3nc(COc4ccc(CC5SC(=O)NC5=O)cc4)n(C)c3c2)c(C)c(C)c1O (stereo not shown) [Example 2-2a] : 193
